meta.source: the supplement of paper PMC9112550

Recorded shrunken log2 fold change by entry
Tested on: Escherichia coli TOP10
protocolSummary: shrunken log2 fold change of peptide-encoding DNA abundance (4.5 h post-induction vs induction); higher = less antimicrobial activity (less host growth inhibition)
measurementContext: time post-induction: 4.5 h; library: site-saturation at positions 5, 18, 19, 20
attributeMeasured: shrunken log2 fold change

               sequencecode          attributemeasured  recordedvalue
 0  RRIRTRPPRLPRPRPRPMTTPRP  shrunken log2 fold change       0.000642
 1  RRIRTRPPRLPRPRPRPPNIPRP  shrunken log2 fold change         -0.355
 2  RRIRTRPPRLPRPRPRPYYEPRP  shrunken log2 fold change        -0.0557
 3  RRIRQRPPRLPRPRPRPAELPRP  shrunken log2 fold change       -0.00135
 4  RRIRARPPRLPRPRPRPNFDPRP  shrunken log2 fold change          0.281
 5  RRIRSRPPRLPRPRPRPWMSPRP  shrunken log2 fold change          0.132
 6  RRIRHRPPRLPRPRPRPSNHPRP  shrunken log2 fold change         -0.461
 7  RRIRTRPPRLPRPRPRPLYMPRP  shrunken log2 fold change         -0.859
 8  RRIRFRPPRLPRPRPRPDYNPRP  shrunken log2 fold change         -0.422
 9  RRIRQRPPRLPRPRPRPIFFPRP  shrunken log2 fold change        -0.0319
10  RRIRTRPPRLPRPRPRPACHPRP  shrunken log2 fold change          0.049
11  RRIRGRPPRLPRPRPRPWWGPRP  shrunken log2 fold change        -0.0457
12  RRIRLRPPRLPRPRPRPPVDPRP  shrunken log2 fold change          0.539
13  RRIRSRPPRLPRPRPRPYRSPRP  shrunken log2 fold change          -0.47
14  RRIRMRPPRLPRPRPRPHGQPRP  shrunken log2 fold change          0.155

###

Tested on: Escherichia coli TOP10;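 also: peptides expressed intracellularly from a pBAD plasmid library in pooled LB shake-flask culture, induced with 0.3% L-arabinose, DNA abundance read by NGS, three biological replicates, DESeq2 with apeglm shrinkage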
protocolSummary: shrunken log2 fold change of peptide-encoding DNA abundance (4.5 h post-induction vs induction); higher = less antimicrobial activity (less host growth inhibition)
measurementContext: time post-induction: 4.5 h; library: site-saturation at positions 5, 18, 19, 20
Recorded shrunken log2 fold change by entry
attributeMeasured: shrunken log2 fold change

               sequencecode      targetortestsystem          attributemeasured  recordedvalue
 0  RRIRYRPPRLPRPRPRPSTVPRP  Escherichia coli TOP10  shrunken log2 fold change        -0.0902
 1  RRIRNRPPRLPRPRPRPGMMPRP  Escherichia coli TOP10  shrunken log2 fold change         -0.247
 2  RRIRWRPPRLPRPRPRPWIDPRP  Escherichia coli TOP10  shrunken log2 fold change         -0.049
 3  RRIRCRPPRLPRPRPRPVWQPRP  Escherichia coli TOP10  shrunken log2 fold change         -0.063
 4  RRIRRRPPRLPRPRPRPEMGPRP  Escherichia coli TOP10  shrunken log2 fold change          0.626
 5  RRIRVRPPRLPRPRPRPTSGPRP  Escherichia coli TOP10  shrunken log2 fold change         0.0674
 6  RRIRTRPPRLPRPRPRPGKTPRP  Escherichia coli TOP10  shrunken log2 fold change        -0.0222
 7  RRIRKRPPRLPRPRPRPANKPRP  Escherichia coli TOP10  shrunken log2 fold change          0.142
 8  RRIRTRPPRLPRPRPRPEWLPRP  Escherichia coli TOP10  shrunken log2 fold change          0.203
 9  RRIRGRPPRLPRPRPRPEKQPRP  Escherichia coli TOP10  shrunken log2 fold change          0.034
10  RRIRNRPPRLPRPRPRPFRSPRP  Escherichia coli TOP10  shrunken log2 fold change          0.033
11  RRIRVRPPRLPRPRPRPYYIPRP  Escherichia coli TOP10  shrunken log2 fold change         -0.284
12  RRIRDRPPRLPRPRPRPCIEPRP  Escherichia coli TOP10  shrunken log2 fold change         -0.158
13  RRIRHRPPRLPRPRPRPKSWPRP  Escherichia coli TOP10  shrunken log2 fold change           0.26
14  RRIRLRPPRLPRPRPRPPGKPRP  Escherichia coli TOP10  shrunken log2 fold change        -0.0183
15  RRIRNRPPRLPRPRPRPNFPPRP  Escherichia coli TOP10  shrunken log2 fold change        -0.0305
16  RRIRWRPPRLPRPRPRPSHVPRP  Escherichia coli TOP10  shrunken log2 fold change         -0.167
17  RRIRMRPPRLPRPRPRPNQWPRP  Escherichia coli TOP10  shrunken log2 fold change           2.38
18  RRIRPRPPRLPRPRPRPYHMPRP  Escherichia coli TOP10  shrunken log2 fold change         -0.316
19  RRIRHRPPRLPRPRPRPGMMPRP  Escherichia coli TOP10  shrunken log2 fold change        0.00873
20  RRIRMRPPRLPRPRPRPTQVPRP  Escherichia coli TOP10  shrunken log2 fold change           1.17
21  RRIRGRPPRLPRPRPRPLLYPRP  Escherichia coli TOP10  shrunken log2 fold change          0.473
22  RRIRTRPPRLPRPRPRPQWGPRP  Escherichia coli TOP10  shrunken log2 fold change        -0.0978
23  RRIRPRPPRLPRPRPRPMKTPRP  Escherichia coli TOP10  shrunken log2 fold change        -0.0446
24  RRIRLRPPRLPRPRPRPDVKPRP  Escherichia coli TOP10  shrunken log2 fold change         -0.488
25  RRIRNRPPRLPRPRPRPRNVPRP  Escherichia coli TOP10  shrunken log2 fold change           -0.3
26  RRIRRRPPRLPRPRPRPAVRPRP  Escherichia coli TOP10  shrunken log2 fold change         0.0847
27  RRIRARPPRLPRPRPRPKAYPRP  Escherichia coli TOP10  shrunken log2 fold change          0.088
28  RRIRKRPPRLPRPRPRPYVAPRP  Escherichia coli TOP10  shrunken log2 fold change          0.111
29  RRIRNRPPRLPRPRPRPIFAPRP  Escherichia coli TOP10  shrunken log2 fold change          0.111
30  RRIRGRPPRLPRPRPRPTFFPRP  Escherichia coli TOP10  shrunken log2 fold change          0.412
31  RRIRCRPPRLPRPRPRPNQNPRP  Escherichia coli TOP10  shrunken log2 fold change         -0.437
32  RRIRMRPPRLPRPRPRPTGQPRP  Escherichia coli TOP10  shrunken log2 fold change          0.636
33  RRIRFRPPRLPRPRPRPIPEPRP  Escherichia coli TOP10  shrunken log2 fold change          0.236
34  RRIRWRPPRLPRPRPRPPYPPRP  Escherichia coli TOP10  shrunken log2 fold change         0.0905
35  RRIRCRPPRLPRPRPRPYKGPRP  Escherichia coli TOP10  shrunken log2 fold change         -0.153
36  RRIRDRPPRLPRPRPRPPLFPRP  Escherichia coli TOP10  shrunken log2 fold change            0.5
37  RRIRDRPPRLPRPRPRPDLKPRP  Escherichia coli TOP10  shrunken log2 fold change          0.169
38  RRIRGRPPRLPRPRPRPYYGPRP  Escherichia coli TOP10  shrunken log2 fold change         -0.289
39  RRIRSRPPRLPRPRPRPNRDPRP  Escherichia coli TOP10  shrunken log2 fold change         -0.233
40  RRIRIRPPRLPRPRPRPEHKPRP  Escherichia coli TOP10  shrunken log2 fold change         -0.199
41  RRIRMRPPRLPRPRPRPAEPPRP  Escherichia coli TOP10  shrunken log2 fold change          0.449
42  RRIRRRPPRLPRPRPRPWERPRP  Escherichia coli TOP10  shrunken log2 fold change        -0.0262
43  RRIRDRPPRLPRPRPRPKRCPRP  Escherichia coli TOP10  shrunken log2 fold change         0.0311
44  RRIRCRPPRLPRPRPRPCKKPRP  Escherichia coli TOP10  shrunken log2 fold change         -0.205
45  RRIRDRPPRLPRPRPRPKLAPRP  Escherichia coli TOP10  shrunken log2 fold change          0.271
46  RRIRSRPPRLPRPRPRPAKSPRP  Escherichia coli TOP10  shrunken log2 fold change         0.0744
47  RRIRDRPPRLPRPRPRPYPRPRP  Escherichia coli TOP10  shrunken log2 fold change         0.0039
48  RRIRLRPPRLPRPRPRPQHLPRP  Escherichia coli TOP10  shrunken log2 fold change         -0.223
49  RRIRSRPPRLPRPRPRPFTNPRP  Escherichia coli TOP10  shrunken log2 fold change        -0.0617
50  RRIRARPPRLPRPRPRPKEYPRP  Escherichia coli TOP10  shrunken log2 fold change          -0.15
51  RRIRFRPPRLPRPRPRPQSSPRP  Escherichia coli TOP10  shrunken log2 fold change         0.0748
52  RRIRKRPPRLPRPRPRPVSGPRP  Escherichia coli TOP10  shrunken log2 fold change          0.233
53  RRIRHRPPRLPRPRPRPQVVPRP  Escherichia coli TOP10  shrunken log2 fold change         -0.101
54  RRIRTRPPRLPRPRPRPRMQPRP  Escherichia coli TOP10  shrunken log2 fold change         0.0874
55  RRIRDRPPRLPRPRPRPISMPRP  Escherichia coli TOP10  shrunken log2 fold change         0.0543
56  RRIRLRPPRLPRPRPRPDIYPRP  Escherichia coli TOP10  shrunken log2 fold change         -0.458
57  RRIRERPPRLPRPRPRPRWLPRP  Escherichia coli TOP10  shrunken log2 fold change          0.108
58  RRIRTRPPRLPRPRPRPWRWPRP  Escherichia coli TOP10  shrunken log2 fold change          0.554
59  RRIRMRPPRLPRPRPRPHPFPRP  Escherichia coli TOP10  shrunken log2 fold change          0.169
60  RRIRTRPPRLPRPRPRPNFIPRP  Escherichia coli TOP10  shrunken log2 fold change         -0.457
61  RRIRDRPPRLPRPRPRPSFDPRP  Escherichia coli TOP10  shrunken log2 fold change        -0.0842
62  RRIRERPPRLPRPRPRPSMEPRP  Escherichia coli TOP10  shrunken log2 fold change          -0.14
